A collection of binders and their measured IC50
- system: T1, monomeric monkey CD48 expressed with a tag consisting of 2 myc and one 6-His epitopes (monkey)
- T1 construct: also called mfCD48-mmH; Monomeric monkey CD48-mmH
- T1 chain: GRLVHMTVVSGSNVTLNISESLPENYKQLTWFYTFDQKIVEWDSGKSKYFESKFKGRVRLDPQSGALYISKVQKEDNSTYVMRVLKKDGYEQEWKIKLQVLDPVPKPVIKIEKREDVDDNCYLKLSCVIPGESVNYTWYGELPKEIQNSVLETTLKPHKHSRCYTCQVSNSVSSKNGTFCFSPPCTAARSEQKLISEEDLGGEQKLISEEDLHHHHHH
- testDetails: competition ELISA; blocks mfCD48-mmH binding to coated h2B4-mFc
# output: bare number, implied unit pM

>  <binder>
H4H1763N (antibody, human IgG4, V domains shown, Human IgG4 Fc (H4H) form of 1763N) VH: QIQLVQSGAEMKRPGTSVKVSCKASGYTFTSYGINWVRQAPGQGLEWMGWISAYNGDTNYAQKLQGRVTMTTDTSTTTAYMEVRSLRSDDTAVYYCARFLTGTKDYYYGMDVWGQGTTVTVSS VL: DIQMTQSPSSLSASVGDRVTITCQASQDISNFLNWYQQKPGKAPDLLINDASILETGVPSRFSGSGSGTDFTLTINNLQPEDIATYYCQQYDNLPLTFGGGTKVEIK

>  <unitAbbrev>
pM

>  <IC50>
7.2

$$$$

[in] Report IC50 for H4H1779P (antibody, human IgG4, V domains shown, Human IgG4 Fc (H4H)) VH: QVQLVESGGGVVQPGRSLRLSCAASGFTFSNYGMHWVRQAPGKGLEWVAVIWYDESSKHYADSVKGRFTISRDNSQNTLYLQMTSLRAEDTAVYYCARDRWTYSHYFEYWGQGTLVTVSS VL: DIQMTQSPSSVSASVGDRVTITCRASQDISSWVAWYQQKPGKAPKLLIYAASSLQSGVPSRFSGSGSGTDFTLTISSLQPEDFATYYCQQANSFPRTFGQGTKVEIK please.
[out] 5.7

[in] Param item: H2M1713N (antibody, mouse IgG2, V domains shown, Human variable domains, mouse IgG2 Fc (H2M)) VH: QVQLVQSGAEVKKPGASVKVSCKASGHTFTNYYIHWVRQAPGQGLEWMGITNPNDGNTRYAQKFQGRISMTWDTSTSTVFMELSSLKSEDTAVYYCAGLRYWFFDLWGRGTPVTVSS VL: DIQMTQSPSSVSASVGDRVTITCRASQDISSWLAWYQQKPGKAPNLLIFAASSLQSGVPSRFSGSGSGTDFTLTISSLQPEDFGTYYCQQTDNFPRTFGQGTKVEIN
[out] 2.5
